Target: Kv1.3 potassium channel (Homo sapiens, UniProt P22001)
Sequence (P22001 whole entry): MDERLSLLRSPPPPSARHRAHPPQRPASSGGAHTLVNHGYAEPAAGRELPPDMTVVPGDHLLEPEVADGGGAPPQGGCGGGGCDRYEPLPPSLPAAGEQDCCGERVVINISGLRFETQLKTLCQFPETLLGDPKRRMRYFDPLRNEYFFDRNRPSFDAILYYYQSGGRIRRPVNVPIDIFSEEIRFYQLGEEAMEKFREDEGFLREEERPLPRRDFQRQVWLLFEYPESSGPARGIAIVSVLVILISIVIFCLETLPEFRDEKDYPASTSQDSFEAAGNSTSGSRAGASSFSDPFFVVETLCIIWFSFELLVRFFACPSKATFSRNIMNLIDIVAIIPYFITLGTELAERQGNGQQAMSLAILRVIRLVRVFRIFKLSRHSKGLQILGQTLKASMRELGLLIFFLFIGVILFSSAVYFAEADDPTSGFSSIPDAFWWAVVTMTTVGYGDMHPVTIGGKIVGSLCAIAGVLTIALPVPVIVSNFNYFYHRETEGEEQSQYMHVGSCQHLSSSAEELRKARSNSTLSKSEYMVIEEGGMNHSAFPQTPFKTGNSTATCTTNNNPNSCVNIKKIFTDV
Experiment: Kv1.3 potassium channel blocker activity, automated whole-cell patch clamp (Patchliner)
Settings: CHO-K1 cells stably expressing Kv1.3; whole cell current inhibition; read-out: Kv1.3_IC50
Method: The assay described below is used to evaluate the disclosed compound's activities as Kv1.3 potassium channel blockers. CHO-K1 cells stably expressing Kv1.3 were grown in DMEM containing 10% heat-inactivated FBS, 1 mM Sodium Pyruvate, 2 mM L-Glutamine and G418 (500 μg/ml). All compounds were dissolved in DMSO at 30 mM. The currents were evoked by applying 100 ms depolarizing pulses from −90 mV (holding potential) to +40 mV were applied with 0.1 Hz frequency. […]
# IC50 per entry

Worked examples, 5 compounds total:
> print(dat)
                                   compound  reported.result
1  N[C@@H](c1cc(Cl)c(Cl)cc1O)C1CCN(C(=O)[C@@H]2CNC(=O)C2)CC1 [Compound 224, trifluoroacetic acid]         < 500 nM
2  N[C@@H](c1cc(Cl)c(Cl)cc1O)C1CCN(C(=O)C2(F)CNC2)CC1 [Compound 114]         < 500 nM
3  N[C@@H](c1cc(Cl)c(Cl)cc1O)C1CCN(C(=O)c2c[nH]c(=O)cn2)CC1 [Compound 186]         < 500 nM
4  N[C@@H](c1cc(Cl)c(C2CCC2)cc1O)C1CCN(C(=O)[C@H](O)CO)CC1 [Compound 288, Trifluoroacetic Acid]       < 30000 nM
5  Cc1cc(O)c([C@H](N)C2CCN(C(=O)c3ccc4c(c3)CCC(=O)N4)CC2)cc1Cl [Compound 259, trifluoroacetic acid]         < 500 nM

Query block: Quick check: IC50 of Cc1cc(O)c([C@H](N)C2CCN(C(=O)c3ccc4c(c3)CNC4=O)CC2)cc1Cl [Compound 324, trifluoroacetic acid] ?
Result block: < 500 nM

Query block: Quick check: IC50 of Cn1cc(C(=O)N2CCC([C@@H](N)c3cc(Cl)c(Cl)cc3O)CC2)cn1 [Compound 203] ?
Result block: < 500 nM

* * *

# pIC50 per entry
Molecular target: Kv1.3 potassium channel (Homo sapiens, UniProt P22001)
Experiment: Kv1.3 potassium channel blocker activity, automated whole-cell patch clamp (Patchliner)
Conditions: CHO-K1 cells stably expressing Kv1.3; whole cell current inhibition; read-out: Kv1.3_IC50
Procedure: The assay described below is used to evaluate the disclosed compound's activities as Kv1.3 potassium channel blockers. CHO-K1 cells stably expressing Kv1.3 were grown in DMEM containing 10% heat-inactivated FBS, 1 mM Sodium Pyruvate, 2 mM L-Glutamine and G418 (500 μg/ml). All compounds were dissolved in DMSO at 30 mM. The currents were evoked by applying 100 ms depolarizing pulses from −90 mV (holding potential) to +40 mV were applied with 0.1 Hz frequency. […]
pIC50: −log10 of the molar value.

Worked examples, 5 compounds total:
> print(dat)
                                   compound  reported.result
1  N[C@@H](c1cc(Cl)c(Cl)cc1O)C1CCN(C(=O)[C@@H](O)CO)CC1 (single isomer, unassigned) [Compound 120]           > 6.30
2  N[C@@H](c1cc(Cl)c(Cl)cc1O)C1CCN(C(=O)[C@H]2COCCN2)CC1 [Compound 194]           > 6.30
3  C[C@](O)(c1cc(Cl)c(Cl)cc1O)C1CCNCC1 (single isomer, unassigned; isomer 2) [Compound 26]           > 5.00
4  NC(c1cc(Cl)c(Cl)cc1O)C1(F)CCNCC1 (stereo not shown) [Compound 59, Trifluoroacetic Acid]           > 5.00
5  N[C@@H](c1cc(Cl)c(Cl)cc1O)C1CCN(C(=O)[C@H]2CC[C@H](O)C2)CC1 (single isomer, unassigned; isomer 1) [Compound 177]           > 5.00

Query block: Quick check: pIC50 of Cc1cc(O)c([C@H](N)C2CCN(C(=O)c3ccc4c(c3)OCC(=O)N4)CC2)cc1Cl [Compound 265, trifluoroacetic acid] ?
Result block: > 6.30

Query block: Quick check: pIC50 of C[C@H](N)C(=O)N1CCC([C@H](N)c2cc(Cl)c(Cl)cc2O)CC1 (single isomer, unassigned) [Compound 75] ?
Result block: > 5.00
